targetOrSystem: c-Src SH2;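 note: peptide library displayed on the E. coli surface as eCPX fusions, selected cells deep-sequenced, score is each peptide's frequency after selection divided by its frequency in the input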
assayOverview: SH2 binding enrichment of the phosphorylated peptide, bacterial display (enrichment ratio); higher = better substrate or ligand; peptides without Tyr show the background
measuredMetric: SH2 binding enrichment
Format: numeric value only, no unit, no commentary.

Worked cases, SH2 binding enrichment given:
- recordSequence: "FEPWVYSLSFE [PRKDC_Y647_F649L_YF]"
  SH2 binding enrichment: 0.471
- recordSequence: "FATAGYGSLEA [EPHA10_Y959_A956T]"
  SH2 binding enrichment: 0.564
- recordSequence: "SSREGYVRHHN [FAM83B_Y433_S435R]"
  SH2 binding enrichment: 0.592
- recordSequence: "TLSGIYQFNIA [FOXL2_Y81_I84N_YF]"
  SH2 binding enrichment: 0.742

Please give the measured SH2 binding enrichment for this sequence: LSVISYDLGMF [GBA3_Y174_M172I]
0.888

Please give the measured SH2 binding enrichment for this sequence: DDEVFYSPRSL [OTC_Y317]
0.47

Please give the measured SH2 binding enrichment for this sequence: MEIHAYRKLLE [LMNA_Y376]
0.471
